Source listed as paper PMC12871931.

System name: T1, importin α5 (IMPα5), Arabidopsis thaliana, recombinant (Arabidopsis thaliana, UniProt Q9FJ09 1-519)
T1 construct: importin alpha isoform 5 of Arabidopsis thaliana; gene synthesised by GenScript, cloned into pETEV21a; IMPα5 was additionally cloned into pETEV16b (N-terminal deca-His-tag); source: E. coli BL21pRARE, purified (Ni2+-IMAC)
T1 sequence (looked up): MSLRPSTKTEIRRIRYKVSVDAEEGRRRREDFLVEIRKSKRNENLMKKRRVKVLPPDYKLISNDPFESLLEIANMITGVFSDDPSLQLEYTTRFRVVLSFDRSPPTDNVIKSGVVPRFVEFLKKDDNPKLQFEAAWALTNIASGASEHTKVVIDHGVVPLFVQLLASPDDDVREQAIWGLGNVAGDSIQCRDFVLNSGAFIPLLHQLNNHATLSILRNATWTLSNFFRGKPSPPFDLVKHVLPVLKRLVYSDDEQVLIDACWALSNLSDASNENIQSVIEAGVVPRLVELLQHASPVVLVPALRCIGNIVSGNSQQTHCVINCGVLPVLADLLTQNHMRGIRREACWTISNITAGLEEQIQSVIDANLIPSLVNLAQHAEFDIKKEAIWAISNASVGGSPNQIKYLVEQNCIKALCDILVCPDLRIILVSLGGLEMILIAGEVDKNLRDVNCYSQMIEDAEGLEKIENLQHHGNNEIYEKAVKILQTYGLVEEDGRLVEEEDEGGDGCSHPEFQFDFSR
Experimental details: fluorescence polarisation; direct titration: TAMRA-NOP-1 constant at 250 nM, IMPα protein concentration varied; 50 μL samples; LS55 spectrometer; Kd by Logistic Fit in Origin; three independent measurements
Condition context: both partners purified
Ends that are not written are not given here. * marks the point of attachment. 5‑TAMRA = 5-carboxytetramethylrhodamine, N-terminal label, CN(C)c1ccc2c(-c3ccc(C(=O)*)cc3C(=O)[O-])c3ccc(N(C)C)cc3[o+]c2c1
Reported property: Kd (µM)
Numbers only, in µM.

Lab note: measured Kd of {5‑TAMRA}-LKRYKRRL (also called fluorescently labeled NOP‐1; source: synthetic peptide (solid-phase peptide synthesis, Fmoc, made in house)) [TAMRA‐NOP‐1 (EIN2 NLS peptide, N‐terminally labeled with 5‐TAMRA)] was 12.9
